Entry source: ChEMBL document CHEMBL1129398

# Species: Homo sapiens
# protocol-notes: in vitro inhibition of human gel-filtered platelets
# Assay type: functional
IC50 values by entry
Number only, in nM; omit the unit.

{"compound-structure-string": "N[C@@H](CNC(=O)CN1CCc2ccc(N3CCNCC3)cc2C1=O)C(=O)O", "assay-readout": "IC50", "observed-value": 630}

Here is another compound to look at.
Supply reported IC50 belonging to this compound: O=C(O)C[C@H](NC(=O)CN1CCc2ccc(N3CCNCC3)cc2C1=O)c1ccc[n+]([O-])c1
18

* * *

# Species on record: Homo sapiens
# protocol-notes: in vitro inhibition of human gel-filtered platelets
# Type: functional
log10 of IC50 values by entry
Reminder: these figures are log10 of reported IC50, in nM before transformation.

Consider the worked cases shown below.
{"compound-structure-string": "C#C[C@H](CC(=O)O)NC(=O)CN1CCc2ccc(N3CCNCC3)cc2C1=O", "log10 of IC50": 1.08}
{"compound-structure-string": "C#C[C@H](CC(=O)O)NC(=O)CN1CCc2ccc(N3CCNCC3)c(Cl)c2C1=O", "log10 of IC50": 1.54}
{"compound-structure-string": "C[C@H](CC(=O)O)NC(=O)CN1CCc2ccc(N3CCNCC3)cc2C1=O", "log10 of IC50": 1.48}
{"compound-structure-string": "C#C[C@H](CC(=O)O)NC(=O)CN1CCc2ccc(C3CCNCC3)cc2C1=O", "log10 of IC50": 0.78}

Supply reported log10 of IC50 belonging to this molecule: C#C[C@H](CC(=O)O)NC(=O)CN1CCc2cc(F)c(N3CCNCC3)cc2C1=O
1.18

Supply reported log10 of IC50 belonging to this molecule: C#C[C@H](CC(=O)O)NC(=O)CN1CCc2ccc(N3CCNCC3)cc2C1
2.51

Supply reported log10 of IC50 belonging to this molecule: O=C(O)C[C@@H](CCc1ccccc1)NC(=O)CN1CCc2ccc(N3CCNCC3)cc2C1=O
1.20

Supply reported log10 of IC50 belonging to this molecule: C#C[C@H](CC(=O)O)NC(=O)CN1CCc2cc(Cl)c(N3CCNCC3)cc2C1=O
1.28
